Parameter: pIC50. Scope: all listed entries.
- Tested on: Plasmodium falciparum
- assay_method_text: Antiplamodial activity against chloroquine-resistant bloodstream forms of Plasmodium falciparum K1 infected in human A+ erythrocytes assessed as growth inhibition after 48 hrs by spectrophotometry
- Format: functional, organism-based
- condition_label: K1, 48 h
pIC50: −log10 of the molar value.

molecule: CC1=C[C@H]2Cc3nc4cc(Cl)ccc4c(NCCCCCCCCCCCCNc4c5c(nc6cc(Cl)ccc46)C[C@@H]4C=C(C)C[C@H]5C4)c3[C@@H](C1)C2
measurement_target: Plasmodium falciparum
pIC50: < 5.22
//
molecule: CC1=CC2Cc3nc4cc(Cl)ccc4c(N)c3C(C1)C2 (configuration not stated)
measurement_target: Plasmodium falciparum
pIC50: < 5.00
//
molecule: CC1=C[C@H]2Cc3nc4cc(Cl)ccc4c(NCCCCCCCCCCNc4c5c(nc6cc(Cl)ccc46)C[C@@H]4C=C(C)C[C@H]5C4)c3[C@@H](C1)C2
measurement_target: Plasmodium falciparum
pIC50: < 5.22
//
molecule: CC1=C[C@H]2Cc3nc4cc(Cl)ccc4c(NCCCCCCCCNc4c5c(nc6cc(Cl)ccc46)C[C@@H]4C=C(C)C[C@H]5C4)c3[C@@H](C1)C2
measurement_target: Plasmodium falciparum
pIC50: < 5.22
//
molecule: CC1=C[C@H]2Cc3nc4cc(Cl)ccc4c(NCc4ccc(CNc5c6c(nc7cc(Cl)ccc57)C[C@@H]5C=C(C)C[C@H]6C5)cc4)c3[C@@H](C1)C2
measurement_target: Plasmodium falciparum
pIC50: < 5.22
//
molecule: C[C@@H]1CC[C@H]2[C@@H](C)C(=O)O[C@@H]3O[C@@]4(C)CC[C@@H]1[C@]32OO4
measurement_target: Plasmodium falciparum
pIC50: 7.04
//
molecule: CC1=C[C@H]2Cc3nc4cc(Cl)ccc4c(NCCCCCCNc4c5c(nc6cc(Cl)ccc46)C[C@@H]4C=C(C)C[C@H]5C4)c3[C@@H](C1)C2
measurement_target: Plasmodium falciparum
pIC50: < 5.22
